Measured Efficacy (GABA)% by item
System Under Test: α2β2γ1 GABAA receptor subtype (Homo sapiens (Human), UniProt P47869+Q8N1C3)
Procedure Summary: Two-electrode voltage clamp electrophysiology in Xenopus oocytes expressing GABAA receptors (modulation of GABA EC20 current)
Type: cell-based
Condition Parameters: % modulation of GABA EC20 = 100*(Fold increase-1); α2β2γ1 oocytes; compound at approx. 30-fold Ki
Result Type: Efficacy (GABA)% (%)

Smiles	Result Type	Unit Name	Recorded Number
C[C@@H]1N=C(c2c(F)cccc2F)c2c(ccc(Cl)c2Cl)-n2nc(S(C)(=O)=O)nc21	Efficacy (GABA)%	%	75
C[C@@H]1N=C(c2ncccc2F)c2c(ccc(Cl)c2Cl)-n2nc(C(=O)N3CC[C@H](F)C3)nc21	Efficacy (GABA)%	%	129
C[C@@H]1N=C(c2ncccc2F)c2c(ccc(Cl)c2Cl)-n2nc(C(=O)N3CC(OC(F)F)C3)nc21	Efficacy (GABA)%	%	104
C[C@@H]1N=C(c2ncccc2F)c2c(ccc(C(F)(F)F)c2Cl)-n2nc(C(=O)N3CCC3)nc21	Efficacy (GABA)%	%	140
